Recorded values, source paper PMC6434079.

- system_tested: FIH1 (Homo sapiens, UniProt Q9NWT6)
- Sequence (Q9NWT6 whole entry): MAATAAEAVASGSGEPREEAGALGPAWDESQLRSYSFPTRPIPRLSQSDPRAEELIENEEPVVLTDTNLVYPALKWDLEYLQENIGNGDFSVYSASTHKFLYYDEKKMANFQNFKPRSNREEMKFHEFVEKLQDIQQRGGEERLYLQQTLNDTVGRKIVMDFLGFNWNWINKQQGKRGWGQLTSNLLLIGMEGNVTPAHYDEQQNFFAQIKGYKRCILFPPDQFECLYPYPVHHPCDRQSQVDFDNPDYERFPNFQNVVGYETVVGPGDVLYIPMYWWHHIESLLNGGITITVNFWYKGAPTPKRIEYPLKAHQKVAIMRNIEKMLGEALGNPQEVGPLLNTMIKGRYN
- method_notes: FIH1 IC50 determination (LC/MS/MS, selectivity screening)
pIC50: −log10 of the molar value.
assay_metric: pIC50

Recorded results for 2 compounds are shown here.
Cc1nc(C(=O)NCC(=O)O)c(O)c2ccc(Oc3ccccc3)cc12 : < 5.00
Cc1cccnc1CN1CCC2(CC1)C(=O)N(c1ccc(-c3ccccc3)cc1)c1ccccc12 : < 5.00

Now, please, on to the next compound.
Query: Check FIH1 (Homo sapiens, UniProt Q9NWT6) data and give pIC50 for O=C(O)CNC(=O)c1nc(Cl)c2ccccc2c1O .
Reply: < 5.00
